Ref: ChEMBL document CHEMBL3885861

species: Rattus norvegicus; assay: Open TG-GATES - Regimen: Single; format: toxicity, organism-based, Sprague-Dawley; parameters: regimen Single, gender Male, age 6 weeks; conditions: in vivo, po, 100 mg/kg, 24 h, tissue Plasma, route gavage, dose level Low
Experimental Endpoint: TP (g/dL)
# value in g/dL; strip the unit string

Completed entries (count: 3):
CNC(=C[N+](=O)[O-])NCCSCc1ccc(CN(C)C)o1 [RANITIDINE] ... 5.5
COC(=O)C1=C(C)NC(C)=C(C(=O)OC)C1c1ccccc1[N+](=O)[O-] [NIFEDIPINE] ... 5.5
O=C(OC[C@H]1O[C@@H](OC(=O)c2cc(O)c(O)c(OC(=O)c3cc(O)c(O)c(O)c3)c2)[C@H](OC(=O)c2cc(O)c(O)c(OC(=O)c3cc(O)c(O)c(O)c3)c2)[C@@H](OC(=O)c2cc(O)c(O)c(OC(=O)c3cc(O)c(O)c(O)c3)c2)[C@@H]1OC(=O)c1cc(O)c(O)c(OC(=O)c2cc(O)c(O)c(O)c2)c1)c1cc(O)c(O)c(OC(=O)c2cc(O)c(O)c(O)c2)c1 [TANNIC ACID] ... 5.5

*Q* Report measured TP; entry is Cc1nnc2n1-c1ccc(Cl)cc1C(c1ccccc1Cl)=NC2 [TRIAZOLAM]
*A* 5.4

*Q* Report measured TP; entry is CN/C(=N/CCSCc1nc[nH]c1C)NC#N [CIMETIDINE]
*A* 5.5

* * *

organism: Rattus norvegicus; assay: Open TG-GATES - Regimen: Daily Repeat; type: toxicity, organism-based, Sprague-Dawley; parameters: regimen Daily Repeat, gender Male, age 6 weeks; conditions: in vivo, po, 100 mg/kg, […], tissue Blood, route gavage, dose level Low, time 7 day
Experimental Endpoint: Lym (%)
# value in %; strip the unit string

Completed entries (count: 2):
CN/C(=N/CCSCc1nc[nH]c1C)NC#N ... 81.6
CCOc1ccc(NC(C)=O)cc1 ... 78.2

*Q* Report measured Lym; entry is O=C(OC[C@H]1O[C@@H](OC(=O)c2cc(O)c(O)c(OC(=O)c3cc(O)c(O)c(O)c3)c2)[C@H](OC(=O)c2cc(O)c(O)c(OC(=O)c3cc(O)c(O)c(O)c3)c2)[C@@H](OC(=O)c2cc(O)c(O)c(OC(=O)c3cc(O)c(O)c(O)c3)c2)[C@@H]1OC(=O)c1cc(O)c(O)c(OC(=O)c2cc(O)c(O)c(O)c2)c1)c1cc(O)c(O)c(OC(=O)c2cc(O)c(O)c(O)c2)c1
*A* 74.8

*Q* Report measured Lym; entry is Cc1nnc2n1-c1ccc(Cl)cc1C(c1ccccc1Cl)=NC2
*A* 74.8

*Q* Report measured Lym; entry is COC(=O)C1=C(C)NC(C)=C(C(=O)OC)C1c1ccccc1[N+](=O)[O-]
*A* 73

*Q* Report measured Lym; entry is CNC(=C[N+](=O)[O-])NCCSCc1ccc(CN(C)C)o1
*A* 81.8

* * *

species on record: Rattus norvegicus; experiment: Open TG-GATES - Regimen: Daily Repeat; type: toxicity, organism-based, Sprague-Dawley; set-up: regimen Daily Repeat, gender Male, age 6 weeks; conditions: in vivo, po, 100 mg/kg, 72 h, tissue Plasma, route gavage, dose level Low, time 3 day
Each entry below lists one item and its recorded gamma-GTP value.
# value in IU/L; strip the unit string

*Q* Report measured gamma-GTP; entry is COC(=O)C1=C(C)NC(C)=C(C(=O)OC)C1c1ccccc1[N+](=O)[O-]
*A* 1

*Q* Report measured gamma-GTP; entry is Cc1nnc2n1-c1ccc(Cl)cc1C(c1ccccc1Cl)=NC2
*A* 1

*Q* Report measured gamma-GTP; entry is O=C(OC[C@H]1O[C@@H](OC(=O)c2cc(O)c(O)c(OC(=O)c3cc(O)c(O)c(O)c3)c2)[C@H](OC(=O)c2cc(O)c(O)c(OC(=O)c3cc(O)c(O)c(O)c3)c2)[C@@H](OC(=O)c2cc(O)c(O)c(OC(=O)c3cc(O)c(O)c(O)c3)c2)[C@@H]1OC(=O)c1cc(O)c(O)c(OC(=O)c2cc(O)c(O)c(O)c2)c1)c1cc(O)c(O)c(OC(=O)c2cc(O)c(O)c(O)c2)c1
*A* 1.2
